Please provide measured melting point for the entries that follow.

Please review the following examples before continuing.
{"columns": ["compound", "experimental.value"],
 "data": [
  ["O=C1CNCC2(CC(c3ccccc3)N(Cc3ccccc3)C(c3ccccc3)C2)N1c1ccccc1 (centres unmarked)", "150 to 153 °C"],
  ["N=C1N(c2ccccc2)C(=S)N(c2ccccc2)C12CC(c1ccccc1)N(Cc1ccccc1)C(c1ccccc1)C2 (centres unmarked) [Compound 11b]", "168 to 170 °C"],
  ["N=C1N(c2ccccc2)C(=O)N(c2ccccc2)C12CC(c1ccccc1)N(Cc1ccccc1)C(c1ccccc1)C2 (centres unmarked) [Compound 11a]", "180 to 183 °C"]
]}

Respectfully, I request melting point for each entry included below.
1. c1ccc(CN2C(c3ccccc3)CC3(CC2c2ccccc2)NCCN3)cc1 (centres unmarked)
2. O=C1CNC(=O)C2(CC(c3ccccc3)N(Cc3ccccc3)C(c3ccccc3)C2)N1c1ccccc1 (centres unmarked)
3. O=C1NCC2(CC(c3ccccc3)N(Cc3ccccc3)C(c3ccccc3)C2)N1c1ccccc1 (centres unmarked)
4. N#CC1=C(N)N(c2ccccc2)C2(CNC1c1ccccc1)CC(c1ccccc1)N(Cc1ccccc1)C(c1ccccc1)C2 (centres unmarked)
5. O=C1NC(=O)C2(CC(c3ccccc3)N(Cc3ccccc3)C(c3ccccc3)C2)N1c1ccccc1 (centres unmarked)

Given back:
209 to 211 °C
201 to 203 °C
128 to 130 °C
> 300 °C
188 to 190 °C

----------
# Tested on: L. major axenic amastigote form
# assay.remarks: In vitro antileishmanial activity, axenic amastigote form
# Assay type: cell-based, Leishmania major
# test.context: Leishmania major, read-out: Antileishmanial IC50 µM, IC50 used for the selectivity index in Table 4
reported.metric: IC50 (µM)
Give bare numbers, in µM.

Asked: Which IC50 is reported for this compound? O=C1CNC(=O)C2(CC(c3ccccc3)N(Cc3ccccc3)C(c3ccccc3)C2)N1c1ccccc1 (stereo not shown)
Given back: 0.501

----------
# Test system: L. major axenic amastigote form
# assay.remarks: In vitro antileishmanial activity, axenic amastigote form
# Assay type: cell-based, Leishmania major
# test.context: read-out: Antiamastigote IC50, µM ± SD; L. major axenic amastigote; 50% growth inhibition
reported.metric: IC50 (µM)
Give bare numbers, in µM.

Asked: Which IC50 is reported for this molecule? O=C1CNC(=O)C2(CC(c3ccccc3)N(Cc3ccccc3)C(c3ccccc3)C2)N1c1ccccc1 (stereo not shown)
Given back: 0.501

----------
# assay.remarks: In vitro cytotoxicity testing on VERO cells
# test.context: African green monkey, VERO cells (African green monkey kidney cells)
reported.metric: CC50 at 72 h (µM)
One number for each entry, in µM.

Asked: Which CC50 at 72 h is reported for this compound? CCCCCCCCCCCCCCCCOP(=O)([O-])OCC[N+](C)(C)C [Miltefosine, reference compound]
Given back: 99.7

----------
# Tested on: L. major axenic amastigote form
# assay.remarks: In vitro antileishmanial activity, axenic amastigote form
# Format: cell-based, Leishmania major
# test.context: Leishmania major, read-out: Antiamastigote IC50, µM ± SD, L. major axenic amastigote; 50% growth inhibition
reported.metric: IC50 (µM)
Numbers only, in µM.

{"columns": ["molecule", "subject.of.test", "IC50 [µM]"],
 "data": [
  ["O=C1CNCC2(CC(c3ccccc3)N(Cc3ccccc3)C(c3ccccc3)C2)N1c1ccccc1 (centres unmarked)", "L. major axenic amastigote form", 4.67]
]}

Next:
Asked: Lab request: please report IC50 under test system L. major axenic amastigote form for O=C1CNC(=O)C2(CC(c3ccccc3)N(Cc3ccccc3)C(c3ccccc3)C2)N1c1ccccc1 (centres unmarked)
Given back: 0.5

src = paper PMC11003478
